# Assay Info: self-splicing fitness, log relative to wild type (ln ratio); higher = more splicing; Tetrahymena group I intron in knt gene, E. coli kanamycin selection, DiMSum; sequences stand for … in CUCUCU…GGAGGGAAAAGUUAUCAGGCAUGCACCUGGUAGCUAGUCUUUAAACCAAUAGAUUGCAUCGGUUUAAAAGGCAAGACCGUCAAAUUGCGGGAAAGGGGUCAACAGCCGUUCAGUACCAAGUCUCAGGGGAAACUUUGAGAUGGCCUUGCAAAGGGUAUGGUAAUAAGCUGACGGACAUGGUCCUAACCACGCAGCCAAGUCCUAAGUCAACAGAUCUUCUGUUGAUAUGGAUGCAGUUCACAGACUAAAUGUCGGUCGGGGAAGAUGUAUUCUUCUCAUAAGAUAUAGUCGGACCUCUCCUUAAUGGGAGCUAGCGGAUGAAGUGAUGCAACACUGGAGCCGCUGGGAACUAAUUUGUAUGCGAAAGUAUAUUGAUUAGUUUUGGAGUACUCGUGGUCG;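 also: selection with 25 µg/mL kanamycin versus none on LB agar overnight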
# Run Conditions: 37 °C

{"Input Sequence": "CCUUAGCAAUAUUACGGACG", "self-splicing fitness (ln)": -0.586}
{"Input Sequence": "UCGUAGCAAUAUUACGGAUG", "self-splicing fitness (ln)": -1.89}
{"Input Sequence": "ACUCAGCAAUAUUACGCGUU", "self-splicing fitness (ln)": -1.18}
{"Input Sequence": "GUAUAGCAAUAUUACGUCAC", "self-splicing fitness (ln)": -1.7}
{"Input Sequence": "GAGAAGCAAUAUUACGUCAU", "self-splicing fitness (ln)": -0.577}
{"Input Sequence": "AAGAAGCAAUAUUACGUUCU", "self-splicing fitness (ln)": -1.26}
{"Input Sequence": "CAUCAGCAAUAUUACGCAGG", "self-splicing fitness (ln)": -1.15}
{"Input Sequence": "ACUAAGCAAUAUUACGCGGU", "self-splicing fitness (ln)": -2.59}
{"Input Sequence": "GAGUAGCAAUAUUACGAAAC", "self-splicing fitness (ln)": -2.56}
{"Input Sequence": "CGGUAGCAAUAUUACGAUGA", "self-splicing fitness (ln)": -0.66}
{"Input Sequence": "AGCCAGCAAUAUUACGCUUU", "self-splicing fitness (ln)": -0.852}
{"Input Sequence": "UUGCAGCAAUAUUACGAAAC", "self-splicing fitness (ln)": -1.87}
{"Input Sequence": "UCGUAGCAAUAUUACGUCUA", "self-splicing fitness (ln)": -0.978}
{"Input Sequence": "UUGAAGCAAUAUUACGAGAA", "self-splicing fitness (ln)": -1.7}
{"Input Sequence": "UCCGAGCAAUAUUACGAGUC", "self-splicing fitness (ln)": -2.16}
{"Input Sequence": "CGUUAGCAAUAUUACGAGGG", "self-splicing fitness (ln)": -0.739}

----------
# Assay Info: self-splicing fitness, log relative to wild type (ln ratio); higher = more splicing; Tetrahymena group I intron in knt gene, E. coli kanamycin selection, DiMSum; sequences stand for … in CUCUCU…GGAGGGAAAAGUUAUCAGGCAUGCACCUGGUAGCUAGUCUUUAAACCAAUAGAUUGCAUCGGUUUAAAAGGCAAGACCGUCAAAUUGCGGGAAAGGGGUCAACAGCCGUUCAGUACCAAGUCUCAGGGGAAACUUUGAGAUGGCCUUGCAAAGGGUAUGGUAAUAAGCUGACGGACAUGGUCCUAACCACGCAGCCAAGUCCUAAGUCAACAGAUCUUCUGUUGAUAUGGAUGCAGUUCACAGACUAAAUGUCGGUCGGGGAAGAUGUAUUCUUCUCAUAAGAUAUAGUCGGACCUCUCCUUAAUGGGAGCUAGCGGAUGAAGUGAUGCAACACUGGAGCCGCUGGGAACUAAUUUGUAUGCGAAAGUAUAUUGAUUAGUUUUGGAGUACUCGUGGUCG
# Run Conditions: 37 °C
Note: every record was labeled by where its self-splicing fitness (ln) sits among low band (below -2), middle band (-2 to below -1), high band (-1 or more)

{"Input Sequence": "CAUAAGCAAUAUUACGGCAU", "Category Label": "middle band"}
{"Input Sequence": "GAUUAGCAAUAUUACGUGUG", "Category Label": "middle band"}
{"Input Sequence": "CAUAAGCAAUAUUACGCUAG", "Category Label": "low band"}
{"Input Sequence": "GCUUAGCAAUAUUACGUCCG", "Category Label": "middle band"}
{"Input Sequence": "GGGUAGCAAUAUUACGUUAA", "Category Label": "high band"}
{"Input Sequence": "ACACAGCAAUAUUACGUUGA", "Category Label": "middle band"}
{"Input Sequence": "AGCAAGCAAUAUUACGAGUC", "Category Label": "middle band"}
{"Input Sequence": "UUUUAGCAAUAUUACGAUUG", "Category Label": "high band"}
{"Input Sequence": "CACGAGCAAUAUUACGAAAC", "Category Label": "middle band"}
{"Input Sequence": "AAAGAGCAAUAUUACGAGAU", "Category Label": "low band"}
{"Input Sequence": "CACGAGCAAUAUUACGCUUC", "Category Label": "low band"}
{"Input Sequence": "CAGGAGCAAUAUUACGUAUA", "Category Label": "middle band"}
{"Input Sequence": "UUCGAGCAAUAUUACGUCUU", "Category Label": "middle band"}
{"Input Sequence": "CAUUAGCAAUAUUACGAUUC", "Category Label": "high band"}
{"Input Sequence": "AUAUAGCAAUAUUACGUGAC", "Category Label": "low band"}
{"Input Sequence": "UGGAAGCAAUAUUACGGAAA", "Category Label": "middle band"}
{"Input Sequence": "GAAAAGCAAUAUUACGCAGA", "Category Label": "low band"}
{"Input Sequence": "UCGGAGCAAUAUUACGUCCA", "Category Label": "high band"}
{"Input Sequence": "UUCGAGCAAUAUUACGUUUC", "Category Label": "low band"}
{"Input Sequence": "CUCUAGCAAUAUUACGUACU", "Category Label": "low band"}
{"Input Sequence": "CGCGAGCAAUAUUACGGAUC", "Category Label": "low band"}
{"Input Sequence": "GCGUAGCAAUAUUACGUAAG", "Category Label": "low band"}
{"Input Sequence": "GACCAGCAAUAUUACGGUGU", "Category Label": "high band"}
{"Input Sequence": "GAGUAGCAAUAUUACGAAUU", "Category Label": "middle band"}
{"Input Sequence": "AGAAAGCAAUAUUACGAGGC", "Category Label": "low band"}
{"Input Sequence": "AGGAAGCAAUAUUACGCAGU", "Category Label": "high band"}
{"Input Sequence": "AUUAAGCAAUAUUACGUAAG", "Category Label": "high band"}
{"Input Sequence": "GUUGAGCAAUAUUACGUGAA", "Category Label": "middle band"}
{"Input Sequence": "GUUAAGCAAUAUUACGAUCA", "Category Label": "high band"}
{"Input Sequence": "ACGAAGCAAUAUUACGAAUG", "Category Label": "low band"}
